Biological target: Sex hormone-binding globulin (Rattus norvegicus, UniProt P08689)
Sequence (P08689 whole entry): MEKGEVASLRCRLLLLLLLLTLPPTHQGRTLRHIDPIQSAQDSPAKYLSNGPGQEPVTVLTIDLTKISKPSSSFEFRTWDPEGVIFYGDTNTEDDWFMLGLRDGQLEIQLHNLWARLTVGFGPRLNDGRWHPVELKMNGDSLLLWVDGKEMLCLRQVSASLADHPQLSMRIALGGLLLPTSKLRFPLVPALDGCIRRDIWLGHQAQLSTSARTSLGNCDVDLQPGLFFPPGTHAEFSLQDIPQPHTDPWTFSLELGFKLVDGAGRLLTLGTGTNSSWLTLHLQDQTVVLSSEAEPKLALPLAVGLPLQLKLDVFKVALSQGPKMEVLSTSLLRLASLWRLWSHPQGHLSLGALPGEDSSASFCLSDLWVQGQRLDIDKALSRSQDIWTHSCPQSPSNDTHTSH

compound: C[C@]1(O)CC[C@H]2[C@@H]3CCC4=CC(=O)CCC4=C3C=C[C@@]21C
unit spec: nM
IC50: 3.7
